# assay.system: human collagen type I (acid soluble, extracted from placenta, Sigma C7774) (human) (UniProt P02452)
# Sequence (P02452 162-1218 limits assumed, chain 1 of 2): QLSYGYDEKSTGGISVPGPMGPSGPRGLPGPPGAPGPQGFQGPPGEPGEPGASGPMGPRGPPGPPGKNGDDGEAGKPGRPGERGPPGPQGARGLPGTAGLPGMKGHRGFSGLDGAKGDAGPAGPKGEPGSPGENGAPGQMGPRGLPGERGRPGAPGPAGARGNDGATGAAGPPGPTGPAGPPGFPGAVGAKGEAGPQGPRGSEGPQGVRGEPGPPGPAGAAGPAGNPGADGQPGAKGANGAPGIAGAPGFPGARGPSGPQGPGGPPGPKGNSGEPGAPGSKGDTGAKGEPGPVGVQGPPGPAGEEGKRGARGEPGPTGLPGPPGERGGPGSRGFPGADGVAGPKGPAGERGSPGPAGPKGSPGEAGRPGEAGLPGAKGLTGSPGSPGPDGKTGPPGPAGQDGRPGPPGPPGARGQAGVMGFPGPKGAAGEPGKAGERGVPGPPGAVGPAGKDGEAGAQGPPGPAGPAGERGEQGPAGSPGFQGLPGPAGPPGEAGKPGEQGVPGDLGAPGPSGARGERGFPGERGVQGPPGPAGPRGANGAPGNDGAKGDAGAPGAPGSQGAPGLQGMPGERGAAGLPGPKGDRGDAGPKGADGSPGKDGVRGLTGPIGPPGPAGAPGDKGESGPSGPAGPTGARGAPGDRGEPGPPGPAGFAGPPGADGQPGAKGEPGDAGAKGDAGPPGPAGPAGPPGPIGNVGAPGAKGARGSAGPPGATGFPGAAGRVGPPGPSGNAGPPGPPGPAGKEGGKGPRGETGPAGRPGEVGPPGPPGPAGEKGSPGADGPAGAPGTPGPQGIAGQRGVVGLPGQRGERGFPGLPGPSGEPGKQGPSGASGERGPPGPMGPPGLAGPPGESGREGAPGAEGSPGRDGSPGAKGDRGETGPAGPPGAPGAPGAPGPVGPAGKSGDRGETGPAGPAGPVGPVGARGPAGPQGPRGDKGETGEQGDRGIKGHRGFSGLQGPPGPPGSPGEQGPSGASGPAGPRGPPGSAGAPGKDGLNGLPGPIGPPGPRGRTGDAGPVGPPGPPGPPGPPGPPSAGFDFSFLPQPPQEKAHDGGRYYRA
# Sequence (P08123 80-1119 limits assumed, chain 2 of 2, further chain): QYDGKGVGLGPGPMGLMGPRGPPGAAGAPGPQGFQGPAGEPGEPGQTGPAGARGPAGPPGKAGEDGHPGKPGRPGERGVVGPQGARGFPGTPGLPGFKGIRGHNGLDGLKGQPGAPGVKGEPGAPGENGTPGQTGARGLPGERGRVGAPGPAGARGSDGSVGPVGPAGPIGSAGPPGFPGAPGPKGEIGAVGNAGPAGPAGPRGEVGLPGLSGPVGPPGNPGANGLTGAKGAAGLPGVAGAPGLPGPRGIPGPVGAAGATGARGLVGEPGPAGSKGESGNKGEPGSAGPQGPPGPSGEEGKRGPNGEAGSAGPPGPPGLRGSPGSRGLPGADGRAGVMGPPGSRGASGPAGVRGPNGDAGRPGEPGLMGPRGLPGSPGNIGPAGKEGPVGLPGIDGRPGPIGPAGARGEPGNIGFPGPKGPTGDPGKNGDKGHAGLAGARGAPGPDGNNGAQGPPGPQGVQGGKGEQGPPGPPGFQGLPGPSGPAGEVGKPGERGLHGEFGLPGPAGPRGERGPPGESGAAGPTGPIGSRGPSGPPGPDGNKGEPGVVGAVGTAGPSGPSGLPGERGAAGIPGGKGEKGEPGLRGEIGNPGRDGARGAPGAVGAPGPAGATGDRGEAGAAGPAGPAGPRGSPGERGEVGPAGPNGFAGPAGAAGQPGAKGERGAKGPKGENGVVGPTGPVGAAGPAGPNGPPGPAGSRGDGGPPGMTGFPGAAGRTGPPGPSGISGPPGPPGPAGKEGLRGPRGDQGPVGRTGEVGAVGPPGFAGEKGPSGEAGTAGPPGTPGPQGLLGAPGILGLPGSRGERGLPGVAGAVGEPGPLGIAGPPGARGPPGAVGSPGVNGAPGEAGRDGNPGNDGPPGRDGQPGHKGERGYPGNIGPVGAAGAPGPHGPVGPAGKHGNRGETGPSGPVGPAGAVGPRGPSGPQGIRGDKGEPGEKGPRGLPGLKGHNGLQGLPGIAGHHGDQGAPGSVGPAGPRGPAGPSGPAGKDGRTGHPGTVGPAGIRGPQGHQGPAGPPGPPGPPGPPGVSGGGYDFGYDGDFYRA
# procedure.details: dried collagen assay
Bridge positions count the residues as written; N and C are the ends. Ends that are not written are not given here.
Could you please report measured Dried Human Collagen Binding for the items listed next?
Give just the number in %; leave the unit off.

Data request: Which Dried Human Collagen Binding is listed for YWVCGGDHQSWHCSHP (disulfide 4-13; also: C-terminus probably amidated (Rink amide resin)) [SEQ ID NO: 35] ?
Data returned: 8

Data request: Ok, now TWICSHNDKGWTCGDQ (disulfide 4-13 (inferred); also: C-terminus likely amidated (Rink amide resin)) [SEQ ID NO: 64]
Data returned: 8

Data request: Ok, now YHACYQAGCWIW (disulfide 4-9; not fully specified (C-terminus)) [SEQ ID NO: 1]
Data returned: 56
